- SYSTEM TESTED: HiBiT tagged CK1α (Homo sapiens, UniProt P48729+Q96SW2)
- Sequence (P48729 whole entry): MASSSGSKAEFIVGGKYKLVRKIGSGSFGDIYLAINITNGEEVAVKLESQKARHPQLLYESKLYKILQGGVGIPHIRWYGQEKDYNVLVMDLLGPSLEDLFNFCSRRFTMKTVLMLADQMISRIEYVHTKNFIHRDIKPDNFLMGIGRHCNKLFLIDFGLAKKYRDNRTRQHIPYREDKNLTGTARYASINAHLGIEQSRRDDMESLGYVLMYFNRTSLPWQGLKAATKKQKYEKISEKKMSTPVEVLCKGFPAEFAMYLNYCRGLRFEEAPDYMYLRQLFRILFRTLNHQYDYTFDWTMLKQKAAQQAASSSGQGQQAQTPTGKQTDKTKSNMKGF
- Sequence (Q96SW2 whole entry): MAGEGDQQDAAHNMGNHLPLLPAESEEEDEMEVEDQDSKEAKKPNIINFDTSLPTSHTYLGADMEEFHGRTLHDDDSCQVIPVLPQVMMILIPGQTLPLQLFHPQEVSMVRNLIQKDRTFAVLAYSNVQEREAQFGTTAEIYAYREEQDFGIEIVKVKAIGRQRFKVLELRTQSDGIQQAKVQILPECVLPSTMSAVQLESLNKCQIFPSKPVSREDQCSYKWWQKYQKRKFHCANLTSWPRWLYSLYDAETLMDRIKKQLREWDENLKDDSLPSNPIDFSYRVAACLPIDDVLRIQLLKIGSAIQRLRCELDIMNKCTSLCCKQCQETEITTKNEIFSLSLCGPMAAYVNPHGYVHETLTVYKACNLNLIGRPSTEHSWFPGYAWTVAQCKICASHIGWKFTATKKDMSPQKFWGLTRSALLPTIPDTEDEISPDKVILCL
- Sequence (Q16531 whole entry partner): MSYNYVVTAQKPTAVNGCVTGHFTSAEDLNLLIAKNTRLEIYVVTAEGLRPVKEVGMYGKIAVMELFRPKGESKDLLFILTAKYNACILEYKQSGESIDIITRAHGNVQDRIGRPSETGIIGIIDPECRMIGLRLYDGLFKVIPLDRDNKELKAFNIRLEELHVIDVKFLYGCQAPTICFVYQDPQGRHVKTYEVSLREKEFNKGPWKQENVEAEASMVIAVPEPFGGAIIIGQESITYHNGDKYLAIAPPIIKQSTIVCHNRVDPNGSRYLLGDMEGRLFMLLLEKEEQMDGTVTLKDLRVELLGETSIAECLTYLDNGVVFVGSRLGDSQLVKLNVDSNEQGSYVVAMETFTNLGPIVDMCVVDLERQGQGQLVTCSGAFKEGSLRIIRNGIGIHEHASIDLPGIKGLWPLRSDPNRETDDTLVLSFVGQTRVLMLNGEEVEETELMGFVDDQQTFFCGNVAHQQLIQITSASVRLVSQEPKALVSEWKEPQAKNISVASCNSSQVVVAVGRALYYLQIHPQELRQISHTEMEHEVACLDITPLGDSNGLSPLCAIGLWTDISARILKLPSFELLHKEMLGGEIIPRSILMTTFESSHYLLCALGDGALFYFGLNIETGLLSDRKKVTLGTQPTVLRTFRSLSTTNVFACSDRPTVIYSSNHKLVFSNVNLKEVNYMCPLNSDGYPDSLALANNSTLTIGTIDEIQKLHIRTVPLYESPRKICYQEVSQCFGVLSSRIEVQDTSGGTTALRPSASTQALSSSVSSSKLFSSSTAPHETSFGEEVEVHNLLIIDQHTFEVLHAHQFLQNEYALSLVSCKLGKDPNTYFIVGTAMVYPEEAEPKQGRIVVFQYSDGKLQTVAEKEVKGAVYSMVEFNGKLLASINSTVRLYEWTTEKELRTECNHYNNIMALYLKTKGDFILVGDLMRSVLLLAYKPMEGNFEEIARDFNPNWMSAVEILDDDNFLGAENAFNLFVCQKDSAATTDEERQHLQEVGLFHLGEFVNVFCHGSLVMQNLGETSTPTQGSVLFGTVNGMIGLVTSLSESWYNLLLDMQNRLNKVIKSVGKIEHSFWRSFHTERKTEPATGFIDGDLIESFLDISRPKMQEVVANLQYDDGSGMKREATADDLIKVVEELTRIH
- METHOD NOTES: CK1α degradation assay (HiBiT assay)
- Assay type: cell-based
- MEASUREMENT CONTEXT: HT-1080 cells, 20 hours; concentration at 50% CK1α degradation
Below, each of the compounds is paired with its reported DC50 value.
Give the value in nM but do not write nM after it.

| COMPOUND | SYSTEM TESTED | UNIT NAME | DC50 |
| --- | --- | --- | --- |
| O=C1CCC(N2Cc3cc(C(=O)N[C@H](c4c(F)cccc4F)C4CCC4)ccc3C2=O)C(=O)N1 (stereo in doubt) | HiBiT tagged CK1α (Homo sapiens, UniProt P48729+Q96SW2) | nM | 40 |
| O=C1CCC(N2Cc3cc(C(=O)NC(c4ccc(F)c(F)c4)C4CCC4)ccc3C2=O)C(=O)N1 (stereo not shown) [Compound 40] | HiBiT tagged CK1α (Homo sapiens, UniProt P48729+Q96SW2) | nM | 416 |
| O=C1CCC(N2Cc3cc(C(=O)N[C@H](c4ncccc4-c4ccc(F)cc4)C4CCC4)ccc3C2=O)C(=O)N1 (stereo in doubt) | HiBiT tagged CK1α (Homo sapiens, UniProt P48729+Q96SW2) | nM | 115 |

Exercise: Any idea what its DC50 is? The compound is O=C1CCC(N2Cc3cc(C(=O)N[C@@H](c4c(F)cccc4F)C4CCC4)ccc3C2=O)C(=O)N1 (stereo in doubt)
Solution: 118

Exercise: Consider the compound O=C1CCC(N2Cc3cc(C(=O)N[C@H](c4ccc(Cl)cc4)C4CC4)ccc3C2=O)C(=O)N1 (stereo in doubt) and give its measured DC50.
Solution: 5190

Exercise: Bench note: what DC50 did COc1cccc([C@@H](NC(=O)c2ccc3c(c2)CN(C2CCC(=O)NC2=O)C3=O)C2CC2)c1 (stereo in doubt) show?
Solution: 198

Exercise: # query: DC50 of entry O=C1CC[C@H](N2Cc3cc(C(=O)N[C@H](c4ccc(F)cc4Cl)C4CCC4)ccc3C2=O)C(=O)N1 (racemic)
Solution: 142

Exercise: Which DC50 value is on record for O=C1CCC(N2Cc3cc(C(=O)N[C@H](c4ccc(Cl)cc4)C4CCC4)ccc3C2=O)C(=O)N1 (stereo in doubt) ?
Solution: 66.7

Exercise: Value lookup for DC50; key = O=C1CCC(N2Cc3cc(C(=O)N[C@H](c4ccc(F)cn4)C4(F)CCC4)ccc3C2=O)C(=O)N1 (stereo in doubt)
Solution: 193

Exercise: If you can, please state the reported DC50 value of O=C1CCC(N2Cc3cc(C(=O)N[C@@H](c4ccc(F)cc4Cl)C4CC4)ccc3C2=O)C(=O)N1 (stereo in doubt) .
Solution: 233

Exercise: Quick one: DC50 for COc1ccccc1C(NC(=O)c1ccc2c(c1)CN(C1CCC(=O)NC1=O)C2=O)C1CC1 (stereo not shown) ?
Solution: 66.6

Exercise: Requested field: DC50. Item: O=C1CCC(N2Cc3cc(C(=O)N[C@@H](c4ccc(F)cc4F)C4CCC4)ccc3C2=O)C(=O)N1 (stereo in doubt)
Solution: 1150

Exercise: Given O=C1CCC(N2Cc3cc(C(=O)N[C@H](c4ccc(F)cc4Cl)C4CCC4)ccc3C2=O)C(=O)N1 (stereo in doubt) , state its recorded DC50.
Solution: 73.5

Source of measurements: patent US12673936B2
